Experiment: Cytotoxicity assay (XTT)
Assay type: cell-based
Conditions: human; Table S-1; 3 days treatment, XTT; read-out: CC50
Description: Monolayers of 1.5 × 10^4 cells in 96-well plates were treated for 3 days with various concentrations (semi-log dilutions from 1000 to 10 µM) of the antiviral drugs. Then, 5 mg/ml 2,3-bis-(2-methoxy-4-nitro-5-sulfophenyl)-2H-tetrazolium-5-carboxanilide (XTT) in DMEM was added to the cells in the presence of 0.01% N-methyl dibenzopyrazine methyl sulfate (PMS). After incubating for 4 h at 37 °C, the cells were measured in a spectrophotometer at 492 nm and 620 nm.
Parameter measured: CC50 at 3 days (µM)
Report the value in µM with no unit label.

COC(=O)N[C@H](C(=O)N1CCC[C@H]1C(=O)Nc1ccc([C@@H]2CC[C@@H](c3ccc(NC(=O)[C@@H]4CCCN4C(=O)[C@@H](NC(=O)OC)C(C)C)cc3)N2c2ccc(C(C)(C)C)cc2)cc1)C(C)C : 70
COC(=O)N[C@H](C(=O)N1CCC[C@H]1c1nc2cc([C@H]3CC[C@H](c4cc5nc([C@@H]6CCCN6C(=O)[C@@H](NC(=O)OC)[C@@H](C)OC)[nH]c5cc4F)N3c3cc(F)c(N4CCC(c5ccc(F)cc5)CC4)c(F)c3)c(F)cc2[nH]1)[C@@H](C)OC : 22
CC(C)OC(=O)[C@H](C)N[P@](=O)(OC[C@H]1O[C@@H](n2ccc(=O)[nH]c2=O)[C@](C)(F)[C@@H]1O)Oc1ccccc1 : 512

Prompt: Give the reported CC50 at 3 days for this compound. COC(=O)N[C@H](C(=O)N1CCC[C@H]1c1nc(-c2ccc(-c3ccc(-c4c[nH]c([C@@H]5CCCN5C(=O)[C@@H](NC(=O)OC)C(C)C)n4)cc3)cc2)c[nH]1)C(C)C
Response: 38
